Test system: goosegrass (Eleusine indica)
Experiment: Test B pre-/postemergence plant response
Assay type: in vivo
Details: Postemergence, 62 g ai/ha; scale 0 (no effect) to 100 (complete control); 13 to 15 days
class 1 means recorded Plant response rating, Goosegrass is 80 or above; class 0 means it is below 80.

Prompt: Is reported Plant response rating, Goosegrass greater than or equal to 80 here: O=C1CCCC(O)=C1C(=O)c1cnc(-c2ccsc2)n(-c2ccccc2)c1=O [Compound 56]
Response: class 0

Prompt: Is reported Plant response rating, Goosegrass greater than or equal to 80 here: Cc1ccc(F)cc1-n1c(-c2ccccc2)ncc(C(=O)C2=C(O)CCCC2=O)c1=O [Compound 44]
Response: class 1

Prompt: Is reported Plant response rating, Goosegrass greater than or equal to 80 here: CCCCc1ncc(C(=O)C2=C(O)CCCC2=O)c(=O)n1-c1cccc(C)c1 [Compound 63]
Response: class 0

Prompt: Is reported Plant response rating, Goosegrass greater than or equal to 80 here: O=C1CCCC(O)=C1C(=O)c1cnc(-c2ccccc2)n(-c2ccccc2F)c1=O [Compound 26]
Response: class 1

Prompt: Is reported Plant response rating, Goosegrass greater than or equal to 80 here: O=C1CCCC(O)=C1C(=O)c1cnc(-c2ccccc2)n(-c2cccc(Br)c2)c1=O [Compound 38]
Response: class 1

---

System: blackgrass (Alopecurus myosuroides)
Assay: Test B pre-/postemergence plant response
Type: in vivo
Details: 31 g ai/ha, postemergence; scale 0 to 100, 0 is no effect, 100 is complete control
Recorded Endpoint: Plant response rating, Blackgrass

Example results:
[[record]]
smiles_input = "CCCc1ncc(C(=O)C2=C(O)CCCC2=O)c(=O)n1-c1ccccc1C"
result = 0

[[record]]
smiles_input = "COCCn1c(-c2cccc(C)c2)ncc(C(=O)C2=C(O)CCCC2=O)c1=O"
result = 0

[[record]]
smiles_input = "Cn1c(-c2ccccc2)ncc(C(=O)C2=C(O)CCCC2=O)c1=O"
result = 0


Prompt: Give its Plant response rating, Blackgrass value. Item: COCCCn1c(-c2cccc(C)c2)ncc(C(=O)C2=C(O)CCCC2=O)c1=O
Response: 5

Prompt: Give its Plant response rating, Blackgrass value. Item: O=C1CCCC(O)=C1C(=O)c1cnc(-c2ccsc2)n(-c2ccccc2)c1=O
Response: 0

Prompt: Give its Plant response rating, Blackgrass value. Item: CCCCc1ncc(C(=O)C2=C(O)CCCC2=O)c(=O)n1-c1ccc(C)cc1
Response: 0

Prompt: Give its Plant response rating, Blackgrass value. Item: Cc1cc(-n2c(-c3ccccc3)ncc(C(=O)C3=C(O)CCCC3=O)c2=O)ccc1F
Response: 20

Prompt: Give its Plant response rating, Blackgrass value. Item: O=C1CCCC(OC(=O)C2CC2)=C1C(=O)c1cnc(-c2ccccc2)n(-c2ccccc2)c1=O
Response: 0

Prompt: Give its Plant response rating, Blackgrass value. Item: CCCCn1c(-c2ccccc2)ncc(C(=O)C2=C(O)CCCC2=O)c1=O
Response: 15

Prompt: Give its Plant response rating, Blackgrass value. Item: Cc1ccccc1-c1ncc(C(=O)C2=C(O)CCCC2=O)c(=O)n1-c1ccccc1
Response: 0

---

System: barnyardgrass (Echinochloa crus-galli)
Assay: Test B flooded paddy test
Type: in vivo
Conditions: 250 g ai/ha; flooded paddy test; visual rating on 0 to 100 scale (0 no effect, 100 complete control) after 13 to 15 days
Satisfied means recorded Plant response rating, Flood, Barnyardgrass is 60 or above; Not satisfied means it is below 60.

Here are 5 molecules together with their reported answers.
[[record]]
molecule = "Cc1ccc(Cl)cc1-n1c(-c2cc(F)cc(F)c2)ncc(C(=O)C2=C(O)CCCC2=O)c1=O [Compound 179]"
label_class = "Not satisfied"

[[record]]
molecule = "O=C1CCCC(O)=C1C(=O)c1cnc(-c2cccc(F)c2)n(C2CCCCC2)c1=O [Compound 187]"
label_class = "Satisfied"

[[record]]
molecule = "CCCCn1c(-c2cccc(Br)c2)ncc(C(=O)C2=C(O)CCCC2=O)c1=O [Compound 138]"
label_class = "Not satisfied"

[[record]]
molecule = "O=C1CCCC(O)=C1C(=O)c1cnc(-c2ccco2)n(-c2ccccc2)c1=O [Compound 76]"
label_class = "Not satisfied"

[[record]]
molecule = "CCCn1c(-c2cc(F)cc(F)c2)ncc(C(=O)C2=C(O)CCCC2=O)c1=O [Compound 152]"
label_class = "Satisfied"


Prompt: Is reported Plant response rating, Flood, Barnyardgrass greater than or equal to 60 here: O=C1CCCC(O)=C1C(=O)c1cnc(-c2ccccc2Br)n(-c2ccccc2)c1=O [Compound 71]
Response: Not satisfied

Prompt: Is reported Plant response rating, Flood, Barnyardgrass greater than or equal to 60 here: O=C1CCCC(O)=C1C(=O)c1cnc(-c2ccccc2Cl)n(-c2ccccc2)c1=O [Compound 35]
Response: Not satisfied
